B1: Chromodomain-helicase-DNA-binding protein 5, residues 411 to 463; numbered along this chain, Q8TDI0 (parent)
chain: EEDDHMEFCRVCKDGGELLCCDACPSSYHLHCLNPPLPEIPNGEWLCPRCTCP

# Variants of: B1
# test_description: abundance fitness (aPCA) (normalised: wild type 0, dead -1); higher = more abundant; growth selection in yeast, the domain comes from the species named
# conditions_used: Homo sapiens
measurement_name: abundance fitness

>>> endpoint_value("C52L")
0.018
>>> endpoint_value("L37K")
-0.201
>>> endpoint_value("C52P")
0.11
>>> endpoint_value("P38Y")
0.17
>>> endpoint_value("T51A")
-0.061
>>> endpoint_value("P38H")
-0.016
>>> endpoint_value("L33V")
-0.04
>>> endpoint_value("L30N")
-0.04
>>> endpoint_value("C47L")
-0.716
>>> endpoint_value("L37Q")
-0.028
>>> endpoint_value("L37W")
-0.109
>>> endpoint_value("P36D")
-0.068
>>> endpoint_value("Y28G")
-0.536
>>> endpoint_value("D22S")
0.034
>>> endpoint_value("C24L")
-1.15
>>> endpoint_value("P25W")
-0.067
>>> endpoint_value("N42Q")
-0.211
>>> endpoint_value("A23S")
0.301
>>> endpoint_value("P48C")
0.023
>>> endpoint_value("A23W")
-0.043
>>> endpoint_value("C24R")
-0.392
>>> endpoint_value("P35V")
-0.145
>>> endpoint_value("L19V")
-0.031
>>> endpoint_value("L30P")
0.087
>>> endpoint_value("C47G")
-0.533
>>> endpoint_value("P25I")
-0.04
>>> endpoint_value("P25F")
-0.094
>>> endpoint_value("A23P")
-0.488
>>> endpoint_value("C24T")
-0.464
>>> endpoint_value("L33H")
-0.706
>>> endpoint_value("E17R")
-0.187
>>> endpoint_value("D22A")
0.05
>>> endpoint_value("A23G")
-0.014
>>> endpoint_value("T51D")
0.202
>>> endpoint_value("E44M")
-0.312
>>> endpoint_value("S27C")
-0.035
>>> endpoint_value("Y28K")
-0.481
>>> endpoint_value("L18N")
-0.932
>>> endpoint_value("C21W")
-0.958
>>> endpoint_value("E39P")
0.139
>>> endpoint_value("C47E")
-0.853
>>> endpoint_value("C20Y")
0.125
>>> endpoint_value("H29G")
-0.825
>>> endpoint_value("H29M")
-0.87
>>> endpoint_value("P25E")
0.054
>>> endpoint_value("C52E")
0.126
>>> endpoint_value("H31Y")
-0.455
>>> endpoint_value("L19E")
-0.346
>>> endpoint_value("L18V")
0.065
>>> endpoint_value("N42Y")
0.059
>>> endpoint_value("T51E")
-0.027
>>> endpoint_value("P38T")
-0.198
>>> endpoint_value("C52H")
0.189
>>> endpoint_value("C20M")
-0.017
>>> endpoint_value("D22V")
-0.085
>>> endpoint_value("C24I")
-0.886
>>> endpoint_value("T51W")
-0.346
>>> endpoint_value("L19P")
-1.22
>>> endpoint_value("L46S")
0.061
>>> endpoint_value("E44I")
-0.156
>>> endpoint_value("L18M")
-0.019
>>> endpoint_value("E39C")
-0.438
>>> endpoint_value("C32I")
-0.979
>>> endpoint_value("C21Y")
-0.946
>>> endpoint_value("C32K")
-0.66
>>> endpoint_value("P25G")
0.085
>>> endpoint_value("Y28T")
-0.542
>>> endpoint_value("H31Q")
-0.436
>>> endpoint_value("P48S")
-0.025
>>> endpoint_value("R49Q")
0.156
>>> endpoint_value("Y28C")
-0.653
>>> endpoint_value("C21N")
-1.03
>>> endpoint_value("E39S")
0.091
>>> endpoint_value("D22P")
0.008
>>> endpoint_value("L33K")
-0.699
>>> endpoint_value("E39A")
0.006
>>> endpoint_value("C21L")
-0.999
>>> endpoint_value("C52K")
-0.198
>>> endpoint_value("W45M")
-0.491
>>> endpoint_value("P38L")
0.263
>>> endpoint_value("L37V")
-0.135
>>> endpoint_value("P25C")
0.087
>>> endpoint_value("L30G")
0.002
>>> endpoint_value("E17W")
-0.458
>>> endpoint_value("P48Q")
-0.09
>>> endpoint_value("P25Q")
-0.118
>>> endpoint_value("L19K")
-0.361
>>> endpoint_value("P25R")
0.087
>>> endpoint_value("P36L")
-0.215
>>> endpoint_value("W45L")
-0.52
>>> endpoint_value("C21V")
-0.932
